System: KB
EXPERIMENT DESCRIPTION: Cytotoxicity against human KB cells
Type: functional
STATED CONDITIONS: read-out: ED50 (the source's name)
pEC50: −log10 of the molar value.

COMPOUND: C=C[C@@]12COC(=O)C(=C)[C@@H]1[C@@H](O)[C@@H]1C(=C)C(=O)O[C@H]1C2 [VERNOMENIN]
pEC50: 3.90

COMPOUND: C=C1C(=O)O[C@H]2[C@H]1[C@H](OC(=O)/C(C)=C\C)C[C@](O)(CCl)[C@@H]1[C@H](O)[C@H]3O[C@@]3(C)[C@]21O [EUPACHLOROXIN]
pEC50: 5.08

COMPOUND: C=C1C(=O)O[C@H]2[C@H]1[C@@H](OC(=O)C=C(C)C)CC1=C[C@@H](C[C@@]3(C)O[C@H]23)OC1=O [ELEPHANTIN]
pEC50: 5.49

* * *

System: KB
EXPERIMENT DESCRIPTION: Cytotoxicity against human KB cells
Type: functional
STATED CONDITIONS: read-out: ED50 (the source's name)
pEC50: −log10 of the molar value.
Overview of reported pEC50 across a group of molecules:
QUANTITY: pEC50

MOLECULE: C=C1[C@@H]2[C@H]3OC(=O)C(=C)[C@@H]3CCC(=C)[C@@H]2C[C@@H]1O[C@@H]1O[C@H](CO)[C@@H](O)[C@H](O)[C@H]1O [VERNOFLEXUOSIDE]
DATA VALUE: 4.72
--
MOLECULE: C=C1[C@H](O)C[C@H](O)[C@]2(C)CC[C@@H]3[C@H](OC(=O)[C@H]3C)[C@@H]12 [ERIVANIN]
DATA VALUE: 5.96
--
MOLECULE: C=C1C(=O)O[C@H]2[C@H]1[C@H](OC(=O)/C(C)=C\C)C[C@](O)(CCl)[C@@H]1[C@H](OC(C)=O)C=C(C)[C@]21O [EUPACHLORIN ACETATE]
DATA VALUE: 6.46

* * *

System: KB
EXPERIMENT DESCRIPTION: Cytotoxicity against human KB cells
Type: functional
STATED CONDITIONS: read-out: ED50 (the source's name)
QUANTITY: log10 of EC50 (log10 of the value in µM)

COMPOUND: C=C1C(=O)O[C@@H]2[C@H]1[C@@H](O)C[C@H](C)[C@@H]1CCC(=O)[C@@]21C
log10 of EC50: 0.94
--
COMPOUND: C=C1C(=O)O[C@@H]2[C@H]3C(CO)=CC(=O)C3=C(C)C[C@@H](O)[C@@H]12
log10 of EC50: 2.41
--
COMPOUND: C=C[C@@]12COC(=O)C(=C)[C@@H]1[C@H]1OC(=O)C(=C)[C@@H]1[C@@H](OC(=O)C(=C)CO)C2
log10 of EC50: 0.70
--
COMPOUND: C=C1C(=O)O[C@H]2[C@H]1[C@H](OC(=O)/C(C)=C\C)C[C@@]1(CO1)[C@@H]1[C@H](O)[C@H]3O[C@@]3(C)[C@]21O
log10 of EC50: -0.20
--
COMPOUND: C=C1CC(OC(=O)/C(C)=C/C)C2C(=C)C(=O)OC2/C=C(\C)C(O)CC1O (configuration not stated) [HYDROXYISONOBILIN]
log10 of EC50: 0.57
--
COMPOUND: C=C1C(=O)O[C@@H]2[C@H]1CC[C@H](C)[C@@H]1C=CC(=O)[C@@]21C
log10 of EC50: 0.26
--
COMPOUND: C=C1C(=O)O[C@@H]2/C=C(\CO)CC/C=C(\CO)C[C@H](OC(=O)C(C)C)[C@@H]12 [ALATOLIDE]
log10 of EC50: 0.60

These data points were gathered from ChEMBL document CHEMBL1158183.
